# Tested on: 171881-019-R-J1-PDC multicell spheroid viability
# protocolDetails: Anticancer human tumor 171881-019-R-J1-PDC patient-derived invasive breast carcinoma cell line growth inhibition [IpAb]
# measurementContext: second compound 0.1 µM; first compound 0.1 µM; stronger effect = lower value

{"columns": ["molecule", "unitAbbrev", "viability, T/C"],
 "data": [
  ["CCCS(=O)(=O)Nc1ccc(F)c(C(=O)c2c[nH]c3ncc(-c4ccc(Cl)cc4)cc23)c1F + CCN1CCN(Cc2ccc(Nc3ncc(F)c(-c4cc(F)c5nc(C)n(C(C)C)c5c4)n3)nc2)CC1", "%", 94.9],
  ["Cc1nc(NC(=O)N2CCCC2C(N)=O)sc1-c1ccnc(C(C)(C)C(F)(F)F)c1 (stereo unspecified) + CC(C)NCC(C(=O)N1CCN(c2ncnc3c2C(C)CC3O)CC1)c1ccc(Cl)cc1", "%", 108],
  ["C=CCn1c(=O)c2cnc(Nc3ccc(N4CCN(C)CC4)cc3)nc2n1-c1cccc(C(C)(C)O)n1 + CC(C)NCC(C(=O)N1CCN(c2ncnc3c2C(C)CC3O)CC1)c1ccc(Cl)cc1", "%", 118],
  ["CC1(C)CCC(CN2CCN(c3ccc(C(=O)NS(=O)(=O)c4ccc(NCC5CCOCC5)c([N+](=O)[O-])c4)c(Oc4cnc5[nH]ccc5c4)c3)CC2)=C(c2ccc(Cl)cc2)C1 + CCN1CCN(Cc2ccc(Nc3ncc(F)c(-c4cc(F)c5nc(C)n(C(C)C)c5c4)n3)nc2)CC1", "%", 105],
  ["CCCS(=O)(=O)Nc1ccc(F)c(C(=O)c2c[nH]c3ncc(-c4ccc(Cl)cc4)cc23)c1F + CC(C)NCC(C(=O)N1CCN(c2ncnc3c2C(C)CC3O)CC1)c1ccc(Cl)cc1", "%", 128],
  ["CC1(C)CCC(CN2CCN(c3ccc(C(=O)NS(=O)(=O)c4ccc(NCC5CCOCC5)c([N+](=O)[O-])c4)c(Oc4cnc5[nH]ccc5c4)c3)CC2)=C(c2ccc(Cl)cc2)C1 + CC(C)NCC(C(=O)N1CCN(c2ncnc3c2C(C)CC3O)CC1)c1ccc(Cl)cc1", "%", 114]
]}

* * *

# Test system: 171881-019-R-J1-PDC multicell spheroid viability
# protocolDetails: Anticancer human tumor 171881-019-R-J1-PDC cell line growth inhibition [IpAb];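 also: spheroids exposed to the agents for seven days before readout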
# measurementContext: second compound 0.316 µM; first compound 0.316 µM; stronger effect = lower value
Please use TRUE for viability, T/C under 70% and FALSE for everything else, ties included.

{"columns": ["compound", "classification"],
 "data": [
  ["CCCS(=O)(=O)Nc1ccc(F)c(C(=O)c2c[nH]c3ncc(-c4ccc(Cl)cc4)cc23)c1F + CC(C)NCC(C(=O)N1CCN(c2ncnc3c2C(C)CC3O)CC1)c1ccc(Cl)cc1", "FALSE"],
  ["Cc1nc(NC(=O)N2CCCC2C(N)=O)sc1-c1ccnc(C(C)(C)C(F)(F)F)c1 (stereo not given) + CC(C)NCC(C(=O)N1CCN(c2ncnc3c2C(C)CC3O)CC1)c1ccc(Cl)cc1", "TRUE"],
  ["Cn1ncc(Cl)c1-c1cc(C(=O)NC(CN)Cc2cccc(F)c2)sc1Cl (stereo not given) + CCN1CCN(Cc2ccc(Nc3ncc(F)c(-c4cc(F)c5nc(C)n(C(C)C)c5c4)n3)nc2)CC1", "TRUE"],
  ["Cn1nccc1Nc1nccc(-c2ccn(C(CO)c3ccc(Cl)c(F)c3)c(=O)c2)n1 (stereo not given) + CCN1CCN(Cc2ccc(Nc3ncc(F)c(-c4cc(F)c5nc(C)n(C(C)C)c5c4)n3)nc2)CC1", "FALSE"]
]}

* * *

# Test system: 171881-019-R-J1-PDC multicell spheroid viability
# protocolDetails: Anticancer human tumor 171881-019-R-J1-PDC cell line growth inhibition [IpAb]; active = viability on the fitted dose curve at most 10% of control; inactive = the rest;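 also: spheroids exposed to the agents for seven days before readout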
# measurementContext: second compound 0.0316 µM; first compound 0.316 µM
Outcomes: 1.0 for active, 0.0 for inactive

{"columns": ["compound", "classification"],
 "data": [
  ["CCCS(=O)(=O)Nc1ccc(F)c(C(=O)c2c[nH]c3ncc(-c4ccc(Cl)cc4)cc23)c1F + CCN1CCN(Cc2ccc(Nc3ncc(F)c(-c4cc(F)c5nc(C)n(C(C)C)c5c4)n3)nc2)CC1", 0.0],
  ["C=CCn1c(=O)c2cnc(Nc3ccc(N4CCN(C)CC4)cc3)nc2n1-c1cccc(C(C)(C)O)n1 + CCN1CCN(Cc2ccc(Nc3ncc(F)c(-c4cc(F)c5nc(C)n(C(C)C)c5c4)n3)nc2)CC1", 0.0],
  ["C=CC(=O)N1CCN(c2nc(=O)n(-c3c(C)ccnc3C(C)C)c3nc(-c4c(O)cccc4F)c(F)cc23)C(C)C1 (stereo not drawn) + CCN1CCN(Cc2ccc(Nc3ncc(F)c(-c4cc(F)c5nc(C)n(C(C)C)c5c4)n3)nc2)CC1", 0.0],
  ["Cc1nc(NC(=O)N2CCCC2C(N)=O)sc1-c1ccnc(C(C)(C)C(F)(F)F)c1 (stereo not drawn) + CCN1CCN(Cc2ccc(Nc3ncc(F)c(-c4cc(F)c5nc(C)n(C(C)C)c5c4)n3)nc2)CC1", 0.0],
  ["CC1(C)CCC(CN2CCN(c3ccc(C(=O)NS(=O)(=O)c4ccc(NCC5CCOCC5)c([N+](=O)[O-])c4)c(Oc4cnc5[nH]ccc5c4)c3)CC2)=C(c2ccc(Cl)cc2)C1 + CCN1CCN(Cc2ccc(Nc3ncc(F)c(-c4cc(F)c5nc(C)n(C(C)C)c5c4)n3)nc2)CC1", 0.0],
  ["Cn1ncc(Cl)c1-c1cc(C(=O)NC(CN)Cc2cccc(F)c2)sc1Cl (stereo not drawn) + CCN1CCN(Cc2ccc(Nc3ncc(F)c(-c4cc(F)c5nc(C)n(C(C)C)c5c4)n3)nc2)CC1", 0.0],
  ["Cn1nccc1Nc1nccc(-c2ccn(C(CO)c3ccc(Cl)c(F)c3)c(=O)c2)n1 (stereo not drawn) + CCN1CCN(Cc2ccc(Nc3ncc(F)c(-c4cc(F)c5nc(C)n(C(C)C)c5c4)n3)nc2)CC1", 0.0],
  ["COc1c(OCCCN2CCOCC2)ccc2c3n(c(=NC(=O)c4cnc(N)nc4)nc12)CCN3 + CCN1CCN(Cc2ccc(Nc3ncc(F)c(-c4cc(F)c5nc(C)n(C(C)C)c5c4)n3)nc2)CC1", 1.0]
]}

* * *

# System: 171881-019-R-J1-PDC multicell spheroid viability
# protocolDetails: Anticancer human tumor 171881-019-R-J1-PDC cell line growth inhibition [IpAb];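 also: spheroids exposed to the agents for seven days before readout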
# measurementContext: second compound 0.316 µM; first compound 0.316 µM; stronger effect = lower value
Each entry below lists one item and its recorded viability, T/C value.
observedProperty: viability, T/C (%)

{"columns": ["compound", "measValue"],
 "data": [
  ["Cn1nccc1Nc1nccc(-c2ccn(C(CO)c3ccc(Cl)c(F)c3)c(=O)c2)n1 (stereo unspecified) + CC(C)NCC(C(=O)N1CCN(c2ncnc3c2C(C)CC3O)CC1)c1ccc(Cl)cc1", 9.02],
  ["COc1c(OCCCN2CCOCC2)ccc2c3n(c(=NC(=O)c4cnc(N)nc4)nc12)CCN3 + CC(C)NCC(C(=O)N1CCN(c2ncnc3c2C(C)CC3O)CC1)c1ccc(Cl)cc1", 0.91],
  ["CC1(C)CCC(CN2CCN(c3ccc(C(=O)NS(=O)(=O)c4ccc(NCC5CCOCC5)c([N+](=O)[O-])c4)c(Oc4cnc5[nH]ccc5c4)c3)CC2)=C(c2ccc(Cl)cc2)C1 + CC(C)NCC(C(=O)N1CCN(c2ncnc3c2C(C)CC3O)CC1)c1ccc(Cl)cc1", 83.1],
  ["Cc1nc(NC(=O)N2CCCC2C(N)=O)sc1-c1ccnc(C(C)(C)C(F)(F)F)c1 (stereo unspecified) + CCN1CCN(Cc2ccc(Nc3ncc(F)c(-c4cc(F)c5nc(C)n(C(C)C)c5c4)n3)nc2)CC1", 85.7],
  ["C=CC(=O)N1CCN(c2nc(=O)n(-c3c(C)ccnc3C(C)C)c3nc(-c4c(O)cccc4F)c(F)cc23)C(C)C1 (stereo unspecified) + CCN1CCN(Cc2ccc(Nc3ncc(F)c(-c4cc(F)c5nc(C)n(C(C)C)c5c4)n3)nc2)CC1", 132],
  ["CCCS(=O)(=O)Nc1ccc(F)c(C(=O)c2c[nH]c3ncc(-c4ccc(Cl)cc4)cc23)c1F + CCN1CCN(Cc2ccc(Nc3ncc(F)c(-c4cc(F)c5nc(C)n(C(C)C)c5c4)n3)nc2)CC1", 112]
]}

* * *

# System: 171881-019-R-J1-PDC multicell spheroid viability
# protocolDetails: Anticancer human tumor 171881-019-R-J1-PDC cell line growth inhibition [IpAb];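 also: spheroids exposed to the agents for seven days before readout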
# measurementContext: curve of first compound; second compound 0.01 µM
# Protocol: Combinatorial screen of targeted agents with ipatasertib and abemaciclib in multi-cell type tumor spheroids […] Compounds. […] If the clinical Cmax for an agent had not been determined, the highest concentration tested was 10 microM. NCI60 Cell Culture. […] The optimal seeding densities for each of the cell lines at each time point assessed were determined prior to performing the concentration response studies. […]
pIC50: −log10 of the molar value.
observedProperty: pIC50

{"columns": ["compound", "comparator", "measValue"],
 "data": [
  ["CCCS(=O)(=O)Nc1ccc(F)c(C(=O)c2c[nH]c3ncc(-c4ccc(Cl)cc4)cc23)c1F + CCN1CCN(Cc2ccc(Nc3ncc(F)c(-c4cc(F)c5nc(C)n(C(C)C)c5c4)n3)nc2)CC1", "<", 5.00],
  ["CC1(C)CCC(CN2CCN(c3ccc(C(=O)NS(=O)(=O)c4ccc(NCC5CCOCC5)c([N+](=O)[O-])c4)c(Oc4cnc5[nH]ccc5c4)c3)CC2)=C(c2ccc(Cl)cc2)C1 + CCN1CCN(Cc2ccc(Nc3ncc(F)c(-c4cc(F)c5nc(C)n(C(C)C)c5c4)n3)nc2)CC1", "=", 5.27],
  ["COc1c(OCCCN2CCOCC2)ccc2c3n(c(=NC(=O)c4cnc(N)nc4)nc12)CCN3 + CCN1CCN(Cc2ccc(Nc3ncc(F)c(-c4cc(F)c5nc(C)n(C(C)C)c5c4)n3)nc2)CC1", "=", 7.71],
  ["Cn1ncnc1[C@H]1c2n[nH]c(=O)c3cc(F)cc(c23)N[C@@H]1c1ccc(F)cc1 + CCN1CCN(Cc2ccc(Nc3ncc(F)c(-c4cc(F)c5nc(C)n(C(C)C)c5c4)n3)nc2)CC1", "<", 7.00],
  ["CC(C)n1nc(-c2ccc3oc(N)nc3c2)c2c(N)ncnc21 + CCN1CCN(Cc2ccc(Nc3ncc(F)c(-c4cc(F)c5nc(C)n(C(C)C)c5c4)n3)nc2)CC1", "=", 8.25]
]}
